Data origin: the supplement of paper PMC8728848

- systemName: Fuc(a1-2)[GalNAc(a1-3)]Gal(b1-4)GlcNAc
- procedureDetails: glycan array binding signal (z-score within array); higher = stronger binding
- experimentalParameters: glycan notation: IUPAC condensed, linker removed
About 410 targets per protein were measured; listed, in parts, are those with the strongest signals and a random draw of the rest.
Please mark TRUE if the recorded glycan array binding signal (z-score) is equal to or greater than -0.08, and FALSE if it falls below.

Examples from the recorded data:
Check if glycan array binding signal (z-score) >= -0.08 (inclusive). Item: DrGal9 (Danio rerio) (protein) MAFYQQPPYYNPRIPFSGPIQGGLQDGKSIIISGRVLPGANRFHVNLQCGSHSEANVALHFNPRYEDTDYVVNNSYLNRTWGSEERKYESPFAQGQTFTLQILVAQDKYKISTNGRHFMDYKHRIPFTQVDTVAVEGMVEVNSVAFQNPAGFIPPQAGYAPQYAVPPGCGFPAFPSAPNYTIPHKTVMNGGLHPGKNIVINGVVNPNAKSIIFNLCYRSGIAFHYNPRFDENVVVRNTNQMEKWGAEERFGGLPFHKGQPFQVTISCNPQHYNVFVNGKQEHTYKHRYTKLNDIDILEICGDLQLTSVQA
FALSE

Does glycan array binding signal (z-score) meet or surpass -0.08 for Gal 4 (Mus musculus), P56470 (protein) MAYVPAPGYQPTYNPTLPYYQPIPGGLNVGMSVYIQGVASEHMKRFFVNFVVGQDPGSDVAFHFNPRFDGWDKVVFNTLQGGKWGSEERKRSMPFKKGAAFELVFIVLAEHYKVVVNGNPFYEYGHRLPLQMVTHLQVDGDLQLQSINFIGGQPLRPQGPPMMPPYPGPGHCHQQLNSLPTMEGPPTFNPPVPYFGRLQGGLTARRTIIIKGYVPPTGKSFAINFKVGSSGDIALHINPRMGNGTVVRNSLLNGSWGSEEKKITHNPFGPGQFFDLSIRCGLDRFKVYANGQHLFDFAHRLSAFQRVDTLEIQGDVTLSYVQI ?
TRUE

Does glycan array binding signal (z-score) meet or surpass -0.08 for Arath Fbox (Arabidopsis thaliana), NP_178341.1 (protein) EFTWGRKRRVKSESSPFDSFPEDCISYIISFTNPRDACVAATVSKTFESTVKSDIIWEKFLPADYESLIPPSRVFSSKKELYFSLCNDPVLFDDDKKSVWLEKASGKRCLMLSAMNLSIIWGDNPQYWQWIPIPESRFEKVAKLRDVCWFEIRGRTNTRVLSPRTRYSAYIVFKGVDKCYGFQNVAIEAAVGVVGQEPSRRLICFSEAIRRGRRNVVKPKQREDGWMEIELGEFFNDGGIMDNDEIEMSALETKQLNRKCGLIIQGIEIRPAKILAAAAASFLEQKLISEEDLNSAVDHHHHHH ?
FALSE

Tell me whether glycan array binding signal (z-score) is at least -0.08 here: MAA (Maackia amurensis), P0DKL3 (protein) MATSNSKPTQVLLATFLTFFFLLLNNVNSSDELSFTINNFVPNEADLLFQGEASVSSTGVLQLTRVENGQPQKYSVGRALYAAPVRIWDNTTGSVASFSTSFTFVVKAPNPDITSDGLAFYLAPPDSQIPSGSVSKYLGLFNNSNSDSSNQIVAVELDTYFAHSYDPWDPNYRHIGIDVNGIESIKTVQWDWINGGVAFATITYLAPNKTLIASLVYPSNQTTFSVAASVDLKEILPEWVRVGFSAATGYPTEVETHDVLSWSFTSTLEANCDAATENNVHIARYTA
FALSE

***
Does glycan array binding signal (z-score) meet or surpass -0.08 for LSectin (Mus musculus), Q8BNX1 (protein) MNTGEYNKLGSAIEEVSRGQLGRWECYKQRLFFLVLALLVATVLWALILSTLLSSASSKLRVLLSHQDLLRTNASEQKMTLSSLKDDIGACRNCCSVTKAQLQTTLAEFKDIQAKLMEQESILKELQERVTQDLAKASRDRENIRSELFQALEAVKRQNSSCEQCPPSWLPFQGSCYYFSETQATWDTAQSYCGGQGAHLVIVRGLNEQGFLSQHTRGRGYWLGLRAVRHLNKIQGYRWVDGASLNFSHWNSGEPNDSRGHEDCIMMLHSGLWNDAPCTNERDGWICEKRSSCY ?
FALSE

API: above_or_equal(metric=glycan array binding signal (z-score), cutoff=-0.08) for item HHL-2 (Homo sapiens), P07307 (protein) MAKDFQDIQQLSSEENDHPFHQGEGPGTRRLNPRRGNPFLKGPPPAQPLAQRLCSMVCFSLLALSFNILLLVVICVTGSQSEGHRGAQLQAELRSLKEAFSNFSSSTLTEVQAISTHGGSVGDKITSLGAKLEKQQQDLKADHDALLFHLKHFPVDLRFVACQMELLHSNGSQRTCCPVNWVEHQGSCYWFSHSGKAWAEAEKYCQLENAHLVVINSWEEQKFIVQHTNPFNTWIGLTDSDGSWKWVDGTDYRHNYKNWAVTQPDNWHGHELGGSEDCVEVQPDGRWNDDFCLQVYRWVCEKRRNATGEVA
FALSE

Say whether OGAN (protein) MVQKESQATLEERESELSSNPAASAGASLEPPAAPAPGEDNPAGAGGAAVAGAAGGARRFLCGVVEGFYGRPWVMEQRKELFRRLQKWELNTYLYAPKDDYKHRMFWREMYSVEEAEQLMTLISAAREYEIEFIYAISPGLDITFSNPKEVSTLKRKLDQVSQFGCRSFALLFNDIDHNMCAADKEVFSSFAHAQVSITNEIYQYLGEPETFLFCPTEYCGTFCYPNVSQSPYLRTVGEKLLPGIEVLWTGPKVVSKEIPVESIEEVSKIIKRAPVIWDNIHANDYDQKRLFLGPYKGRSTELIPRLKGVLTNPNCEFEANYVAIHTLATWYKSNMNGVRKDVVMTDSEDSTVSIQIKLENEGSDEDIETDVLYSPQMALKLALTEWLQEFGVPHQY shows glycan array binding signal (z-score) of -0.08 or more.
FALSE

Is glycan array binding signal (z-score) for Gal 3 (Homo sapiens), P17931 (protein) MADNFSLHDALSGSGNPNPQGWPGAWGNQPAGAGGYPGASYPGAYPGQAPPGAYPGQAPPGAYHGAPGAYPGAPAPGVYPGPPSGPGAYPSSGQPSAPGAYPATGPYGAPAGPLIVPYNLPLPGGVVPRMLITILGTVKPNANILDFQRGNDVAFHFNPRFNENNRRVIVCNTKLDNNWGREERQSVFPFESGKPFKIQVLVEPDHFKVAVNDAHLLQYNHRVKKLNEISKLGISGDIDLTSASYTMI at or above -0.08?
TRUE

Check if glycan array binding signal (z-score) >= -0.08 (inclusive). Item: Lb MiSSP8 (Laccaria bicolor) (protein) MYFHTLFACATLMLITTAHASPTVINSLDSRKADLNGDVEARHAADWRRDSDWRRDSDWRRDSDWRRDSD
FALSE
